A set of molecules tested on Serine/threonine-protein kinase mTOR (Homo sapiens), with measured IC50:
quantity: IC50 (nM)

structure.string	IC50 (nM)
CC(=O)N1CCc2c(N3CCOC[C@H]3C)nc(-c3cccc4[nH]ccc34)nc2C1(C)C	13

(1) C[C@@H]1COCCN1c1nc(-c2cccc3[nH]ccc23)nc2c1CN(C(=O)c1ccc3c(c1)OCO3)C2(C)C
(2) C[C@@H]1COCCN1c1nc(-c2cccc3[nH]ccc23)nc2c1CCN(S(C)(=O)=O)C2(C)C
# input Of 1 and 2 , which one carries the higher reported IC50? Your answer should be the label of the entry you select.
# output 2
(2: 157 nM, 1: 33 nM)

====

- procedure.details: Protein binding in human plasma at 1 uM incubated for 6 hrs by dialysis based LC-MS/MS analysis
- Type: ADME, cell-free
- particulars: read-out: PPB (converted)
quantity: fraction unbound at 6 h, 1 µM

(1) C[C@@H]1COCCN1c1nc(-c2cccc3[nH]ccc23)nc2c1CN(C(=O)c1ccc3c(c1)OCO3)C2(C)C
(2) C[C@@H]1COCCN1c1nc(-c2cccc3[nH]ccc23)nc2c1CN(C(=O)c1cccc(S(C)(=O)=O)c1)C2(C)C
# input Of 1 and 2 , which one carries the higher reported fraction unbound at 6 h, 1 µM? Your answer should be the label of the entry you select.
# output 2
(2: 0.003, 1: 0.001)

====

- procedure.details: Oral bioavailability in Sprague-Dawley rat at 5 mg/kg and measured upto 24 hrs by LC-MS analysis
- Format: ADME, organism-based
- particulars: in vivo
quantity: bioavailability (%)

Example entries begin here.
structure.string	quantity	unit.of.measure	experimental.value
C[C@@H]1COCCN1c1nc(-c2cccc3[nH]ccc23)nc2c1CN(C(=O)c1cccc(S(C)(=O)=O)c1)C2(C)C	bioavailability	%	30
COc1ccc(C(=O)N2Cc3c(N4CCOC[C@H]4C)nc(-c4cccc5[nH]ccc45)nc3C2(C)C)cc1	bioavailability	%	6.3
COc1cccc(C(=O)N2Cc3c(N4CCOC[C@H]4C)nc(-c4cccc5[nH]ccc45)nc3C2(C)C)c1	bioavailability	%	8.1

(A) C[C@@H]1COCCN1c1nc(-c2cccc3[nH]ccc23)nc2c1CN(C(=O)c1ccc(S(C)(=O)=O)cc1)C2(C)C
(B) C[C@@H]1COCCN1c1nc(-c2cccc3[nH]ccc23)nc2c1CN(C(=O)c1ccc3c(c1)OCO3)C2(C)C
# input When the recorded bioavailability values are compared, which is smaller: that of A or that of B ? Your answer should be the label of the entry you select.
# output A
(A: 6.1%, B: 41.6%)

====

- procedure.details: in vitro
- particulars: human, liver microsomes
quantity: CLint scaled at 1 h, 1 µM (mL/min/kg)

(1) C[C@@H]1COCCN1c1nc(-c2cccc3[nH]ccc23)nc2c1CCN(C(=O)c1ccccc1)C2(C)C
(2) CC(=O)c1cccc(C(=O)N2Cc3c(N4CCOC[C@H]4C)nc(-c4cccc5[nH]ccc45)nc3C2(C)C)c1
(3) C[C@@H]1COCCN1c1nc(-c2cccc3[nH]ccc23)nc2c1CCN(C(=O)c1cccc(F)c1)C2(C)C
(4) CC(=O)N1CCc2c(N3CCOC[C@H]3C)nc(-c3cccc4[nH]ccc34)nc2C1(C)C
(5) CC(C)C(=O)N1CCc2c(N3CCOC[C@H]3C)nc(-c3cccc4[nH]ccc34)nc2C1(C)C
# input I would appreciate it if you could sort these 5 molecules by CLint scaled at 1 h, 1 µM, starting from the smallest number. Give me the labels in the order the question wants.
# output 1, 4, 3, 2, 5

(a) CC(=O)c1ccc(C(=O)N2Cc3c(N4CCOC[C@H]4C)nc(-c4cccc5[nH]ccc45)nc3C2(C)C)cc1
(b) COc1ccc(C(=O)N2Cc3c(N4CCOC[C@H]4C)nc(-c4cccc5[nH]ccc45)nc3C2(C)C)cc1
# input Of a and b , which one carries the higher reported CLint scaled at 1 h, 1 µM? Your answer should be the label of the entry you select.
# output a
(a: 265 mL/min/kg, b: 139 mL/min/kg)

(1) C[C@@H]1COCCN1c1nc(-c2cccc3[nH]ccc23)nc2c1CN(C(=O)c1ccc(S(C)(=O)=O)cc1)C2(C)C
(2) CCC(=O)N1CCc2c(N3CCOC[C@H]3C)nc(-c3cccc4[nH]ccc34)nc2C1(C)C
# input When the recorded CLint scaled at 1 h, 1 µM values are compared, which is smaller: that of 1 or that of 2 ? Your answer should be the label of the entry you select.
# output 1

(1) COc1cccc(C(=O)N2Cc3c(N4CCOC[C@H]4C)nc(-c4cccc5[nH]ccc45)nc3C2(C)C)c1
(2) C[C@@H]1COCCN1c1nc(-c2cccc3[nH]ccc23)nc2c1CN(C(=O)c1cccc(S(C)(=O)=O)c1)C2(C)C
# input Of 1 and 2 , which one carries the higher reported CLint scaled at 1 h, 1 µM? Your answer should be the label of the entry you select.
# output 2
